Value source: ChEMBL document CHEMBL1145802

The following compounds each carry a recorded pKi for Sodium-dependent serotonin transporter (Rattus norvegicus).
Note: pKi values are expressed as the negative base-10 logarithm of concentration in M.

| COMPOUND | pKi |
| --- | --- |
| OC(CCN1CCN(CCCN(c2ccc(F)cc2)c2ccc(F)cc2)CC1)c1ccccc1 (configuration not stated) | 6.10 |

Hi! What's the reported pKi for `Fc1ccc(N(CCCN2CCN(Cc3ccccc3)CC2)c2ccc(F)cc2)cc1` on Sodium-dependent serotonin transporter (Rattus norvegicus)? 5.43

====

Target: Monoamine transporters; Norepininephrine & dopamine (Rattus norvegicus) (UniProt P23977+Q9WTR4)
Test: Ratio of binding affinities for dopamine and norepinephrine transporters
Assay type: protein assay
MEASURED METRIC: Ratio
Hey, just send me the number, nothing else.

State the recorded Ratio for this entry: `C[C@@H]1CN(CCCN(c2ccc(F)cc2)c2ccc(F)cc2)C[C@@H](C)N1` 219

Next record, please: `Fc1ccc(N(CCCN2CCN(Cc3ccccc3)CC2)c2ccc(F)cc2)cc1` 190
